tested on: cytosolic chaperonin (CCT/TRiC complex); experiment: High-Throughput Screening for Modulators of Cytosolic Chaperonin Activity; conditions: purified chaperonin ATPase assay, HTRF ADP detection, 30 min; active compounds read low; also: % is scaled to controls: 0 for no effect and ±100 for the full control effect
Among all 360,000 compounds or so, about 1,100 (0.31%) were called active. The entries come from a sample that favours actives as a whole.
Each entry below carries its reported activity change.
Dear colleague, please return just the value in %, with no unit written.

| compound | endpoint_value |
| --- | --- |
| CCOC(=O)c1c(C)c(C(=O)N2CCC3(CC2)OCCO3)c(C)n1CC | -3.47 |

Input Cc1ccc(Cn2nnnc2CN2CCC(n3nnc4ccccc43)CC2)cc1 , output reported activity change.
-0.0525

Retrieve activity change measured for O=C1NC(=O)C(C/C=C/c2ccccc2)C(=O)N1 and print it.
-117

For the compound COCCNC(=O)CN1C2CCC1CC(O)(c1cccnc1)C2 (stereo unspecified) , give its measured activity change value.
0.503

Hello, please tell me recorded activity change for this one: Nc1ccc([N+](=O)[O-])cc1
-35.1

Indicate the recorded activity change value for this compound: O=C1NC(=O)C(Cc2ccccc2)C(=O)N1
-0.218
